# Tested on: RBM10 RRM1-ZnF-RRM2 (GST-tagged construct);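 note: 20 pmol protein with 1.5 nmol RNA pool for 30 min at 4°C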
# experiment summary: RNAcompete 7-mer binding Z-score; higher = stronger binding preference
Over roughly 16,000 sequences, “Z-score” has its median near -0.37; the highest 2% begin near 3.1. This excerpt belongs to a sample that is enriched for the highest values.

monomer sequence | RNAcompete 7-mer binding Z-score
AUCUACU | -0.806
AGGGACG | 2.37
UGGGCGC | 0.989
UGGGCGG | 3.38
UGGGGCG | 2.66
CCCAGCU | -0.657
GGGUGCA | 3
CAGGGAG | 3.08
ACACAUG | -0.0962
CGGGAUG | 2.31
GGGGAUG | 3.68
GCGUGGA | 2.22
GUAUGGA | 2.44
AACAUGC | -0.435
AAAUGGG | 4.04
AAGGCAA | 1.95
UGGGGAU | 3.05
GCGGCUA | 0.21
GAUGGUA | 2.46
UGGUGGA | 2.74
ACUAGAA | -0.187
GGACCGU | 0.0532
GAGGGAG | 3.04
UAGGGAC | 2.24
GGGGGAU | 2.89
UGGGGCC | 0.76
CAUGGGG | 2.51
AAAUGGU | 2.73
UUGGGGC | 2.04
UGGGGCA | 3.52
UAUGGGA | 2.76
AGGGCGG | 2.23
UGGGAUU | 1.63
GGGGAUC | 2.27
AGGUGGA | 3
CAGGGAA | 3.07
CUUACAA | -0.785
GAGUGGU | 2.52
UUGUGUG | 0.0604
UGGUGGC | 1.72
CUGGGGU | 1.79
GAAAUCU | -0.46
AGGGGCA | 2.36
UAGGGAA | 3.46
CUAUGGG | 1.08
UGGGAUG | 3.22
UGUGACC | -0.176

Source listed as the supplement of paper PMC5499739.
